target: PI3Kδ (Homo sapiens, UniProt O00329); assay: ADP-glo biochemical assay; conditions: purified enzyme, read-out: biochemical IC50 PI3K Delta
Sequence (O00329 whole entry): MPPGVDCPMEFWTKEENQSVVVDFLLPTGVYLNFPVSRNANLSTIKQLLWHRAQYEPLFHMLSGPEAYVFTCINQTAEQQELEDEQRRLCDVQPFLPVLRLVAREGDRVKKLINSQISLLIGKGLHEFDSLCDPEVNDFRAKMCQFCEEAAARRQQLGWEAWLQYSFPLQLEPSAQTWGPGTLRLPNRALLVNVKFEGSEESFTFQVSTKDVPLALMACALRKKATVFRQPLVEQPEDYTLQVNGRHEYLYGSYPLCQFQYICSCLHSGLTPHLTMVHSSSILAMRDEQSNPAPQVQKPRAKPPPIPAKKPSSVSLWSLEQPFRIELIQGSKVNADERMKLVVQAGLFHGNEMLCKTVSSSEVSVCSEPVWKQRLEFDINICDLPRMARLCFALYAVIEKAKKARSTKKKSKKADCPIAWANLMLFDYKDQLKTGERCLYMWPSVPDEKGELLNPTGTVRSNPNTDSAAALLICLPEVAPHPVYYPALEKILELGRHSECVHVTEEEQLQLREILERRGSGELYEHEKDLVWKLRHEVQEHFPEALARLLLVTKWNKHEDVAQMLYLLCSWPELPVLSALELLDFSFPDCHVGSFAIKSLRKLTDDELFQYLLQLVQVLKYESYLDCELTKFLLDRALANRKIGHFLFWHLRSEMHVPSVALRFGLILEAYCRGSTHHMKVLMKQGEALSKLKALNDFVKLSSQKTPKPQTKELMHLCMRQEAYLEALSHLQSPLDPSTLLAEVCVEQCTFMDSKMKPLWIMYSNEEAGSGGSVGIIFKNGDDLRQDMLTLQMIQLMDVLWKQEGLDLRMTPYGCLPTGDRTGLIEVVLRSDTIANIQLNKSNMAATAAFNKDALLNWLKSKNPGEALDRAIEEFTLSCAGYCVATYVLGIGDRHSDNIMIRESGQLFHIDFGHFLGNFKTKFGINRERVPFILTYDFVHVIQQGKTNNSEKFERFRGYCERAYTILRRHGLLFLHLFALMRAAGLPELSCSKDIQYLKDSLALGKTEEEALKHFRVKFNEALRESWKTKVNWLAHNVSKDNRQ
Sequence (P27986 whole entry partner): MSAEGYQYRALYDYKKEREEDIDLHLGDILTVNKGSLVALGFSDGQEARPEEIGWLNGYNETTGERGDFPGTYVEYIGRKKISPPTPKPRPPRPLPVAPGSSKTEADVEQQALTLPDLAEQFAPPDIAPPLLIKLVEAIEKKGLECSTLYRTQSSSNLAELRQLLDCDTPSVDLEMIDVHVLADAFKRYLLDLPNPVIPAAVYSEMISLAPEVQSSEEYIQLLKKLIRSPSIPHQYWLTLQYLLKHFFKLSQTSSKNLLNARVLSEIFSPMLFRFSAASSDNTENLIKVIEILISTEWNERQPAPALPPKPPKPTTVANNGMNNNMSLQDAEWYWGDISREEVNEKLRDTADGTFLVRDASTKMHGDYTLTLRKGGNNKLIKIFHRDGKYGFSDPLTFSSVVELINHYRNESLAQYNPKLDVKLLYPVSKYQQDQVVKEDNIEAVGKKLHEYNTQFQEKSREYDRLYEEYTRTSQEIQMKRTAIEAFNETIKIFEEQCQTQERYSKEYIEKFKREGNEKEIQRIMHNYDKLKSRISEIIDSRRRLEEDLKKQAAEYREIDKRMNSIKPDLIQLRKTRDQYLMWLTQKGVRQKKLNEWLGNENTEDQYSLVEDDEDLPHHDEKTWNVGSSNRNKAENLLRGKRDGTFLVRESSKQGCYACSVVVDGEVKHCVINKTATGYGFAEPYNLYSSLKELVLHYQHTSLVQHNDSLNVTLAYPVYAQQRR
endpoint.name: pIC50
Answers are plain numbers, as −log10 of the molar value.

[ask] # get_value(readout= pIC50, system= PI3Kδ (Homo sapiens, UniProt O00329)) for Cc1nc(NC(=O)[C@@H](N)C(C)C)sc1-c1cnc(Cl)c(NS(=O)(=O)c2ccccc2)c1
[reply] 8.30
